- System: CYPIR (Rice Flatsedge)
- TEST: Preemergence weed control under flooded paddy conditions
- Assay type: in vivo, Cyperus iria
- EXPERIMENTAL_CONDITIONS: 0.2500 kg/ha, rated 3-4 weeks after treatment
ASSAY_ENDPOINT: CYPIR herbicidal effect rating
Returns: the value as a bare number; no unit string appended.

Q. Recorded CYPIR herbicidal effect rating for CCOC(=O)C(c1ccc(Cl)cc1)N1C(=O)CSC1=Nc1cc(-n2c(=O)cc(C(F)(F)F)n(C)c2=O)c(F)cc1Cl (racemic) , please?
A. 6.0

Q. Recorded CYPIR herbicidal effect rating for C=CCN1C(=O)C(CC(=O)OC(C)C)SC1=Nc1cc(-n2c(=O)cc(C(F)(F)F)n(C)c2=O)c(F)cc1Cl (stereo not shown) , please?
A. 7.0

Q. Recorded CYPIR herbicidal effect rating for C=CCN1C(=O)C(CC(N)=O)SC1=Nc1cc(-n2c(=O)cc(C(F)(F)F)n(C)c2=O)c(F)cc1Cl (stereo not shown) , please?
A. 0.0

Q. Recorded CYPIR herbicidal effect rating for CCOC(=O)CN1C(=O)C(CC(=O)NS(=O)(=O)CC)SC1=Nc1cc(-n2c(=O)cc(C(F)(F)F)n(C)c2=O)c(F)cc1Cl (stereo not shown) , please?
A. 9.0

Q. Recorded CYPIR herbicidal effect rating for CCOC(=O)CN1C(=O)C(CC(=O)OC(C)C)SC1=Nc1cc(-n2c(=O)cc(C(F)(F)F)n(C)c2=O)c(F)cc1Cl (stereo not shown) , please?
A. 6.0

Q. Recorded CYPIR herbicidal effect rating for C=CCN1C(=O)C(CC(=O)OC(C)C(=O)OCC)SC1=Nc1cc(-n2c(=O)ccn(C)c2=O)c(F)cc1Cl (stereo not shown) , please?
A. 4.0

Q. Recorded CYPIR herbicidal effect rating for CCOC(=O)CN1C(=O)C(Cc2ccccc2OC(C)C(=O)O)S/C1=N/c1cc(-n2c(=O)cc(C(F)(F)F)n(C)c2=O)c(F)cc1Cl (stereo not shown) , please?
A. 9.0
